Cited source for all entries: ChEMBL document CHEMBL5303304

Test system: U2OS
Experiment: Incucyte cell viability with U2OS; note: unitless GR value; below 1 slowed growth and below 0 cell loss
Format: toxicity, cell-based
Conditions: human, 0 h, 10 µM, compound concentration 10 uM, replicate number 2
Rule: Growth Rate of -0.01 or more gives met; anything lower gives not met.

{"smiles-string": "COc1c(C(=O)/C=C/c2ccccc2)c(O)c(OC)c2occc12", "label-value": "not met"}

Could you tell me if the measured Growth Rate of "Cl.Clc1cc2cc(c1)-c1cnn3ccc(nc13)NCCOCCO2" reaches -0.01 or more? met

Could you tell me if the measured Growth Rate of "C=C1/C(=C\C=C2/CCC[C@]3(C)[C@@H]([C@H](C)CCCC(C)(C)O)CC[C@@H]23)C[C@@H](O)C[C@@H]1O" reaches -0.01 or more? met

Could you tell me if the measured Growth Rate of "Cn1cc(-c2ccc(-c3cncc(Cl)c3N3CCC4(CCNC4=O)CC3)cc2)cn1" reaches -0.01 or more? met

Could you tell me if the measured Growth Rate of "CC(C)NC(=O)[C@H]1CCC[C@H]1Nc1nc(Nc2ccc(C(=O)N(C)C3CCN(C)CC3)cc2)ncc1Cl" reaches -0.01 or more? met

---

System: Fibroblast
Experiment: Incucyte cell viability with human fibroblast; note: unitless GR value; below 1 slowed growth and below 0 cell loss
Assay type: toxicity, cell-based
Conditions: 24 h, 10 µM, compound concentration 10 uM, replicate number 2
Entries whose Growth Rate is below 0.8 take yes (1); entries at or above 0.8 take no (0).

Known results for compounds:
{"compound": "CN1CCN(c2ccnc(NCCc3ccccc3)n2)CC1 [TP-040n]", "label-value": "yes (1)"}
{"compound": "O=C1C[C@@H]2OCC=C3CN4CC[C@]56c7ccccc7N1[C@H]5[C@H]2[C@H]3C[C@H]46 [STRYCHNINE]", "label-value": "no (0)"}
{"compound": "CC[C@H]1[C@@H](O)[C@@H]2[C@H](CC[C@]3(C)[C@@H]([C@H](C)CCC(=O)O)CC[C@@H]23)[C@@]2(C)CC[C@@H](O)C[C@@H]12 [OBETICHOLIC ACID]", "label-value": "no (0)"}
{"compound": "COc1c(C(=O)/C=C/c2ccccc2)c(O)c(OC)c2occc12", "label-value": "yes (1)"}

Does COCCNC1CCC(Nc2cc(-c3csc(NCC4(C#N)CCOCC4)n3)c(Cl)cn2)CC1 (configuration not stated) have Growth Rate strictly under 0.8? yes (1)

Does Cc1ccc(NC(=O)c2ccc(CN3CC[C@H](N(C)C)C3)c(C(F)(F)F)c2)cc1Nc1nccc(-c2cncnc2)n1 [BAFETINIB] have Growth Rate strictly under 0.8? yes (1)

Does "c1cc(-c2cnn3cc(-c4ccc(N5CCNCC5)cc4)cnc23)c2cccnc2c1" have Growth Rate strictly under 0.8? yes (1)

Does "COc1ccc(Br)cc1S(=O)(=O)NC(=O)/C=C/c1cc(Cl)ccc1Cc1ccc2ccccc2c1" have Growth Rate strictly under 0.8? yes (1)

Does "CC[C@](C)(O)C#Cc1cc2c(ccn2-c2cc(OC)nc(N)n2)cn1" have Growth Rate strictly under 0.8? no (0)

---

System: Fibroblast
Test: Incucyte cell viability with human fibroblast; note: unitless GR value; below 1 slowed growth and below 0 cell loss
Assay type: toxicity, cell-based
Conditions: 18 h, 10 µM, compound concentration 10 uM, replicate number 1
Rule: Growth Rate of 0.2 or more gives satisfied; anything lower gives not satisfied.

{"compound": "Cc1c(N2CCCC2)nc2ccc(Br)cc2c1C(=O)NC[C@H](CCC(=O)O)c1ccccc1Cl", "label-value": "satisfied"}
{"compound": "C[C@@H]1CC[C@@]2(OC1)O[C@H]1[C@@H](O)[C@H]3[C@@H]4CC[C@H]5C[C@@H](O[C@@H]6O[C@H](CO)[C@H](O[C@@H]7O[C@H](CO)C(O)[C@H](O[C@@H]8OC[C@@H](O)[C@H](O)[C@H]8O)[C@H]7O[C@@H]7O[C@H](CO)[C@H](O)[C@H](O[C@@H]8O[C@H](CO)[C@@H](O)[C@H](O)[C@H]8O)[C@H]7O)[C@H](O)[C@H]6O)[C@H](O)C[C@]5(C)[C@H]4CC[C@]3(C)[C@H]1[C@@H]2C (some centres not stated)", "label-value": "satisfied"}
{"compound": "Cc1cc(-c2nc(-c3ccc(OC(F)(F)F)cc3)no2)nn1Cc1ccnc(N2CCN(C3CC3)CC2)c1", "label-value": "satisfied"}

Could you tell me if the measured Growth Rate of "CC[C@H](Nc1c(C#N)c(-c2ccc(-c3cccc(C)c3F)cc2)nc2cnccc12)C(=O)O" reaches 0.2 or more? satisfied

Could you tell me if the measured Growth Rate of C[S+](C)[O-] [DIMETHYL SULFOXIDE] reaches 0.2 or more? satisfied

Could you tell me if the measured Growth Rate of C=CC(=O)Nc1cc(-c2nn(C3CCC(N4CCN(C(C)=O)CC4)CC3)c3ncnc(N)c23)ccc1Oc1ccccc1 (configuration not stated) reaches 0.2 or more? not satisfied

Could you tell me if the measured Growth Rate of "COc1cc2ncnc(Nc3ccc(F)c(Cl)c3)c2cc1OCCN(C)C[C@H](C)O" reaches 0.2 or more? not satisfied

---

Growth Rate listing for selected molecules.
Test system: Fibroblast
Test: Incucyte cell viability with human fibroblast; note: unitless GR value; below 1 slowed growth and below 0 cell loss
Type: toxicity, cell-based
Conditions: 12 h, 10 µM, compound concentration 10 uM, replicate number 1
Write no unit; give the number alone.

{"molecule": "Cc1cc([N+](=O)[O-])c(NS(=O)(=O)c2cccc(C(=O)O)c2)cc1-c1cccnc1", "result-type": "Growth Rate", "recorded-result": 0.56}

Give reported Growth Rate value for NCC1CCC(CNc2nc(NCc3ccccc3OC(F)(F)F)ncc2[N+](=O)[O-])CC1 (stereo unspecified) 0.28

Give reported Growth Rate value for "Cn1c(=O)n(CCCO)c(=O)c2c1nc(Oc1cccc(OC(F)(F)F)c1)n2Cc1ccc(Cl)cc1" -1

Give reported Growth Rate value for "Cc1cc(Nc2ncc(Cl)c(Nc3ccccc3S(=O)(=O)C(C)C)n2)c(OC(C)C)cc1C1CCNCC1" -1

Give reported Growth Rate value for "CC(C)(c1ccc(O)cc1)c1ccc(O)cc1" 0.37

Give reported Growth Rate value for "C[C@H](c1ccnc(Nc2nc3ccc(-c4cc(N(C)C)ncn4)cc3[nH]2)c1)N1CCN(C(=O)CC(F)(F)F)CC1" -1

Give reported Growth Rate value for "CSc1ccc(C[C@@H](C)C(=O)O)cc1Nc1nc(N2CC[C@H](N(C)C)C2)cc(C(F)F)c1C#N.O=C(O)C(F)(F)F" 0.16

Give reported Growth Rate value for O=C(N[C@H]1CCCCC/C=C\C2C[C@@]2(C(=O)O)NC(=O)[C@@H]2C[C@@H](Oc3ccncc3)CN2C1=O)OC1CCCC1 (stereo partly specified) 0.84

Give reported Growth Rate value for "O=C(Nc1ccc(Cl)c(-c2ccccn2)c1)c1cccc(COc2ccc(Br)cc2CNCCO)c1.O=CO" 0.51

Give reported Growth Rate value for Cc1cc(C(C#N)c2ccc(Cl)cc2)c(Cl)cc1NC(=O)c1cc(I)cc(I)c1O (stereo unspecified) -1

Give reported Growth Rate value for "Cc1ccccc1Oc1cc(-n2c(=O)cc(C(F)(F)F)[nH]c2=O)c2ccccc2c1Cl" 0.51

---

Growth Rate listing for selected molecules.
Tested on: Fibroblast
Test: Incucyte cell viability with human fibroblast; note: unitless GR value; below 1 slowed growth and below 0 cell loss
Format: toxicity, cell-based
Settings: 24 h, 10 µM, compound concentration 10 uM, replicate number 2

Reference set, count: 2
{"smiles-string": "CC(C)(C)c1ccc(NC(=O)N2CCN(c3ncccc3Cl)CC2)cc1", "Growth Rate": 0.87}
{"smiles-string": "COc1cccc(CNc2ccc(S(=O)(=O)Nc3nc4ccccc4s3)cc2)c1O", "Growth Rate": 0.84}

Now for a further molecule.
Give reported Growth Rate value for "Cc1cc(-c2nncc3c(C(C)(C)C)c(OCc4ncnn4C)nn23)no1" 0.87

---

System: Fibroblast
Assay: Incucyte cell viability with human fibroblast; note: unitless GR value; below 1 slowed growth and below 0 cell loss
Type: toxicity, cell-based
Conditions: 6 h, 10 µM, compound concentration 10 uM, replicate number 1
Growth Rate listing for selected compounds.
Write no unit; give the number alone.

Reference set, count: 5
{"compound": "CC(C)(C)OC(=O)CN(Cc1ccc(Cl)cc1)Cc1ccc([N+](=O)[O-])s1 [GSK-4112]", "target-system": "Fibroblast", "Growth Rate": 0.7}
{"compound": "CC(=O)N1CCN(c2ccc(OCC3COC(Cn4ccnc4)(c4ccc(Cl)cc4Cl)O3)cc2)CC1 (stereo unspecified) [KETOCONAZOLE]", "target-system": "Fibroblast", "Growth Rate": 0.47}
{"compound": "CN1C(=O)Cc2ccc(-c3ccc(C[C@@H](C#N)NC(=O)[C@H]4N[C@@H]5CC[C@H]4C5)c(F)c3)cc21", "target-system": "Fibroblast", "Growth Rate": 0.56}
{"compound": "C[C@H](NC(=O)c1cc(Cl)ccc1Oc1ccc(F)cc1)c1ccc(C(=O)O)cc1", "target-system": "Fibroblast", "Growth Rate": 0.59}
{"compound": "C[C@@H](C(N)=O)[C@H](N)c1nc2cc(C(C)(C)C)ccc2[nH]1 [PF-06305591]", "target-system": "Fibroblast", "Growth Rate": -0.98}

Now for a further compound.
Give reported Growth Rate value for CCN1C(=O)C(c2cccc(C(=O)O)c2)C(=O)N(c2ccccc2)c2cc(C(F)(F)F)ccc21 (stereo unspecified) 0.7
